Please respond with reported viability at 2 µM for every item in the list.
# Tested on: JeKo-1
# Protocol: Cytotoxicity against human JeKo1 cells assessed as cell viability at 2 uM after 24 hrs by MTT assay relative to control
# Format: functional
# Condition description: JeKo-1, 24 h, read-out: Activity
Answers are plain numbers, in %.

Recorded viability at 2 µM, per entry:
Molecule	viability at 2 µM, %
C=C1C(=O)O[C@@H]2[C@H]3O[C@]3(C)CC/C=C(/COC(=O)c3cc(C(F)(F)F)cc(C(F)(F)F)c3)CC[C@@H]12	64.3
C=C1C(=O)O[C@@H]2[C@H]3O[C@]3(C)CC/C=C(/C)[C@@H](OC(=O)Nc3cc(C(F)(F)F)cc(C(F)(F)F)c3)C[C@@H]12	76.4
C=C1C(=O)O[C@@H]2[C@H]3O[C@]3(C)CC/C=C(/COC(=O)c3ccc(C(F)(F)F)cc3C(F)(F)F)CC[C@@H]12	80.9
C=C1C(=O)O[C@@H]2[C@H]3O[C@]3(C)CC/C=C(/COC(=O)c3cc(-c4ccc(Cl)cc4)on3)CC[C@@H]12	90.6
C=C1C(=O)O[C@@H]2[C@H]3O[C@]3(C)CC/C=C(/C)[C@@H](OC(C(=O)OCC)c3ccccc3)C[C@@H]12 (some centres not stated)	76.6

Required: viability at 2 µM, one value per molecule below.
1. C=C1C(=O)O[C@@H]2[C@H]3O[C@]3(C)CC/C=C(/COC(=O)Nc3ccccc3)CC[C@@H]12
2. C=C1C(=O)O[C@@H]2[C@H]3O[C@]3(C)CC/C=C(/COC(=O)c3ccc(C(F)(F)F)cc3)CC[C@@H]12

Given back:
1: 100; 2: 95.9

* * *

# Test system: JeKo-1
# Protocol: Cytotoxicity against human JeKo1 cells assessed as cell viability at 2 uM after 24 hrs by MTT assay relative to control
# Format: functional
# Condition description: JeKo-1, 24 h, read-out: Activity
Measure: viability at 2 µM (%)
Give bare numbers, in %.

Recorded viability at 2 µM, per entry:
Molecule	Measure	Experimental value
C=C1C(=O)O[C@@H]2[C@H]3O[C@]3(C)CC/C=C(/COC(=O)Nc3ccc([N+](=O)[O-])cc3)CC[C@@H]12	viability at 2 µM	80
C=C1C(=O)O[C@@H]2[C@H]3O[C@]3(C)CC/C=C(/COC(C(=O)OCC)c3ccc(C(F)(F)F)cc3)CC[C@@H]12 (some centres undefined)	viability at 2 µM	89.3
C=C1C(=O)O[C@@H]2[C@H]3O[C@]3(C)CC/C=C(/COC(C(=O)OCC)c3ccccc3)CC[C@@H]12 (some centres undefined)	viability at 2 µM	88.6

Required: viability at 2 µM, one value per molecule below.
1. C=C1C(=O)O[C@@H]2[C@H]3O[C@]3(C)CC/C=C(/C)[C@@H](OC(=O)c3cccs3)C[C@@H]12
2. C=C1C(=O)O[C@@H]2[C@H]3O[C@]3(C)CC/C=C(/COCc3ccccc3)CC[C@@H]12
3. C=C1C(=O)O[C@@H]2[C@H]3O[C@]3(C)CC/C=C(/COC(=O)Nc3cccc4ccccc34)CC[C@@H]12
4. C=C1C(=O)O[C@@H]2[C@H]3O[C@]3(C)CC/C=C(/COC(=O)c3coc(-c4ccc(Br)cc4)c3)CC[C@@H]12
5. C=C1C(=O)O[C@@H]2[C@H]3O[C@]3(C)CC/C=C(/COC(=O)Nc3cc(C(F)(F)F)cc(C(F)(F)F)c3)CC[C@@H]12

Given back:
98.1
100
102
100
71.5

Required: viability at 2 µM, one value per molecule below.
1. C=C1C(=O)O[C@@H]2C3O[C@]3(C)CC/C=C(\C)CC[C@@H]12 (some centres undefined)
2. C=C1C(=O)O[C@@H]2[C@H]3O[C@]3(C)CC/C=C(/C)[C@@H](OC(C(=O)OCC)c3ccc(C(F)(F)F)cc3)C[C@@H]12 (some centres undefined)
3. C=C1C(=O)O[C@@H]2[C@H]3O[C@]3(C)CC/C=C(/C)[C@@H](OC(=O)Nc3ccc(F)cc3F)C[C@@H]12
4. C=C1C(=O)O[C@@H]2[C@H]3O[C@]3(C)CC/C=C(/C)[C@@H](OC(=O)Nc3ccccc3)C[C@@H]12
5. C=C1C(=O)O[C@@H]2[C@H]3O[C@]3(C)CC/C=C(/C)[C@@H](OC(C(=O)OCc3ccccc3)c3ccccc3)C[C@@H]12 (some centres undefined)
6. C=C1C(=O)O[C@@H]2[C@H]3O[C@]3(C)CC/C=C(/C)[C@@H](OC(=O)c3cc(-c4ccc(Cl)cc4)on3)C[C@@H]12

Given back:
100
76.3
80.4
92.2
89.4
96.9
